- Target Of Assay: T1, human SIRPβ1 isoform 1 on cells (human, UniProt O00241 30-398)
- T1 construct: On CHO cells (low level), on BWZ/BW5147.G.1.4 cells (reporter cells co-express human DAP12) or on primary human myeloid cells; also called huSIRPβ1; BWZ-huSIRPβ1
- T1 sequence (O00241 30-398): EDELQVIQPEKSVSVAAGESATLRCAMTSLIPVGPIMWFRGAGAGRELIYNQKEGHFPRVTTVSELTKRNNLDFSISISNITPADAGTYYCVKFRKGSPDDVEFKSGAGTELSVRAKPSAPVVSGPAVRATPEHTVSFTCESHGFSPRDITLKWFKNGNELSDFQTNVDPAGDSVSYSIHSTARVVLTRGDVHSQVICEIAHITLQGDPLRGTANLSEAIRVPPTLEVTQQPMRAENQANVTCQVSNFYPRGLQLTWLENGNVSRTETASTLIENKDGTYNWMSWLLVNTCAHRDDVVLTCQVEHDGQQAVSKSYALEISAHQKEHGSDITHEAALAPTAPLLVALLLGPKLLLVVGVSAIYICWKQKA
- Procedure Summary: flow cytometry;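 also: antibody binding to cells detected with a PE-labelled secondary antibody, given as mean fluorescence intensity relative to background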
Property Name: FOB (fold over background)
Give just the numeric value; fold over background need not be written.

Any idea what FOB was measured for SB-40-18 (antibody, V domains shown, IgG) VH: QVQLVQSGAEVKKPGASVKVSCKASGYTFTSYYMAWVRQAPGQRLEWMGWINPAVGATIYSQKFQGRVTITRDTSASTAYMELSSLRSEDTAVYYCARDTGEYSYSPHGMDVWGQGTTVTVSS VL: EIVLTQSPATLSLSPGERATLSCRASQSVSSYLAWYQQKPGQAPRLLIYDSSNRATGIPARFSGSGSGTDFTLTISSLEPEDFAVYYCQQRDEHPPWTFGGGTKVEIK ? 4
